- measurement_protocol: Clearance in rat at 1.06 mg/kg, iv
- Format: ADME, organism-based
- Parameters: dose 1.06 mg/kg, route intravenous
- condition_info: in vivo
test_readout: clearance (mL/min/kg)
Reply numerically in mL/min/kg, unit not repeated.

Req: Tell me measured clearance for Cc1sc(Nc2ccc3c(c2)OCO3)nc1C(=O)N1CCc2ncccc2C1C (stereo unspecified) please.
Resp: 9.3

###

- tgt: UniProt Q9HBA0
- Sequence (Q9HBA0 whole entry): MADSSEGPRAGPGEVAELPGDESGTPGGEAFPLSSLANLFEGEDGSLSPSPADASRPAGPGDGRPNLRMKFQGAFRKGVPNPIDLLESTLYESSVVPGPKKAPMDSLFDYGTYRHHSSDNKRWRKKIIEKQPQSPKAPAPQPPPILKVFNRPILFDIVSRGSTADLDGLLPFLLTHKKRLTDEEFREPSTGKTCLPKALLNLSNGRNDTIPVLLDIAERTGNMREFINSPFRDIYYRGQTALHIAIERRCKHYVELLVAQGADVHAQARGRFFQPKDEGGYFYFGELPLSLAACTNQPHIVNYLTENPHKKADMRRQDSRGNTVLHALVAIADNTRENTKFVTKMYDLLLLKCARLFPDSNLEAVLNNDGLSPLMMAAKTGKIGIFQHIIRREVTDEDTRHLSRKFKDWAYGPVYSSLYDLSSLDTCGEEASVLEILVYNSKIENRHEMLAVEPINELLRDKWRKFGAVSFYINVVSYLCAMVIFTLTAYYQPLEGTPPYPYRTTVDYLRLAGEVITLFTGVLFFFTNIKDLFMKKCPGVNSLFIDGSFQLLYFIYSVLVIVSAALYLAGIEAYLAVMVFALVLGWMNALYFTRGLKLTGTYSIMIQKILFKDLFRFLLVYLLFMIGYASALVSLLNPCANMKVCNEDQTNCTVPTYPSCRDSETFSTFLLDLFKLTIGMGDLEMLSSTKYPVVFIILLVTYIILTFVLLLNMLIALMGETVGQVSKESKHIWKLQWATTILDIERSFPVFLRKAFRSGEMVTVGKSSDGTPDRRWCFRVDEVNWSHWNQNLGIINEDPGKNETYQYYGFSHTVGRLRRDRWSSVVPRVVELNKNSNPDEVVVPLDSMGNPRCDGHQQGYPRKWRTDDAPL
- measurement_protocol: Inhibition of TRPV4 (unknown origin) by FLIPR assay
Reported IC50 values are given for each entry in this list.
Reply numerically in µM, unit not repeated.

INSERT INTO assay_data (molecule, test_readout, result_number) VALUES
  ('Cc1sc(Nc2ccc(Cl)cc2F)nc1C(=O)N1CCC[C@H](C)[C@@H]1C', 'IC50', 12.5);

// below: IC50 requested for another molecule
Req: Tell me measured IC50 for Cc1ccc(Nc2nc(C(=O)N3CCCC(C)C3C)cs2)cc1 (configuration not stated) please.
Resp: 6.3
